system: HUVEC; test: cells; details: chemotherapeutic combined with DI-17E6

>  <compound>
C[C@]12CC[C@@H]3c4ccc(OC(=O)N(CCCl)CCCl)cc4CC[C@H]3[C@@H]1CC[C@@H]2O [Estramustine]

>  <tgt>
HUVEC

>  <additive effect with DI-17E6>
no

$$$$
>  <compound>
CC(=O)O[C@H]1C(=O)[C@@]2(C)[C@H]([C@H](OC(=O)c3ccccc3)[C@]3(O)C[C@H](OC(=O)[C@H](O)[C@@H](NC(=O)c4ccccc4)c4ccccc4)C(C)=C1C3(C)C)[C@]1(OC(C)=O)CO[C@@H]1C[C@@H]2O [Taxol, Paclitaxel]

>  <tgt>
HUVEC

>  <additive effect with DI-17E6>
yes

$$$$
>  <compound>
Cn1nnc2c(C(N)=O)ncn2c1=O [Temozolmide]

>  <tgt>
HUVEC

>  <additive effect with DI-17E6>
no

$$$$
>  <compound>
Nc1ccn([C@@H]2O[C@H](CO)[C@@H](O)C2(F)F)c(=O)n1 [Gemcitabine]

>  <tgt>
HUVEC

>  <additive effect with DI-17E6>
yes

$$$$
>  <compound>
COc1cc([C@@H]2c3cc4c(cc3[C@@H](O[C@@H]3O[C@@H]5CO[C@@H](C)O[C@H]5[C@H](O)[C@H]3O)[C@H]3COC(=O)[C@H]23)OCO4)cc(OC)c1O [Etoposide]

>  <tgt>
HUVEC

>  <additive effect with DI-17E6>
yes

$$$$
>  <compound>
O=c1[nH]cc(F)c(=O)[nH]1 [5FU]

>  <tgt>
HUVEC

>  <additive effect with DI-17E6>
yes

$$$$
>  <compound>
COc1cccc2c1C(=O)c1c(O)c3c(c(O)c1C2=O)C[C@@](O)(C(=O)CO)C[C@@H]3O[C@H]1C[C@H](N)[C@H](O)[C@H](C)O1 [Doxorubicin]

>  <tgt>
HUVEC

>  <additive effect with DI-17E6>
yes

$$$$

* * *

test system: HUVEC; assay: cells; conditions: Homo sapiens, HUVEC, 72 h, 10 ng/ml FGF-2, 72 hours, single agent

>  <compound>
Nc1ccn([C@@H]2O[C@H](CO)[C@@H](O)C2(F)F)c(=O)n1

>  <IC50 (nM)>
4

$$$$
>  <compound>
CC[C@]1(O)C[C@H]2CN(CCc3c([nH]c4ccccc34)[C@@](C(=O)OC)(c3cc4c(cc3OC)N(C=O)[C@H]3[C@@](O)(C(=O)OC)[C@H](OC(C)=O)[C@]5(CC)C=CCN6CC[C@]43[C@@H]65)C2)C1

>  <IC50 (nM)>
0.7

$$$$
>  <compound>
CC[C@@]1(O)C(=O)OCc2c1cc1n(c2=O)Cc2cc3ccccc3nc2-1

>  <IC50 (nM)>
80

$$$$
>  <compound>
COc1cc([C@@H]2c3cc4c(cc3[C@@H](O[C@@H]3O[C@@H]5CO[C@@H](C)O[C@H]5[C@H](O)[C@H]3O)[C@H]3COC(=O)[C@H]23)OCO4)cc(OC)c1O [Etoposide]

>  <IC50 (nM)>
700

$$$$
>  <compound>
COc1cccc2c1C(=O)c1c(O)c3c(c(O)c1C2=O)C[C@@](O)(C(=O)CO)C[C@@H]3O[C@H]1C[C@H](N)[C@H](O)[C@H](C)O1

>  <IC50 (nM)>
200

$$$$
